Catalogue of logP readings, one per entry.
Measurement label: logP

Smiles representation | Result
CCCCc1ccc(NC(=O)NC(=O)c2c(F)cccc2F)cc1C | 3.64
O=C(NC(=O)c1c(F)cccc1F)Nc1ccc(Oc2ncc(C(F)(F)F)cc2Cl)c(Cl)c1Cl | 4.46
Cc1cc(NC(=O)NC(=O)c2c(F)cccc2F)ccc1Br | 2.8
O=C(NC(=O)c1c(F)cccc1F)Nc1cc(C(F)(F)F)cc(Cl)c1Cl | 3.27
O=C(NC(=O)c1c(F)cccc1F)Nc1cc(Br)cc(C(F)(F)F)c1Cl | 3.41
Cc1ccc(C)c(NC(=O)NC(=O)c2c(F)cccc2F)c1 | 1.47
O=C(NC(=O)c1c(F)cccc1F)Nc1cc(Cl)cc(Cl)c1Br | 3.04
O=C(NC(=O)c1c(F)cccc1F)Nc1ccc(Br)c(OC(F)(F)F)c1 | 3.48
Cc1cc(Oc2ncc(C(F)(F)F)cc2Cl)c(C)cc1NC(=O)NC(=O)c1c(F)cccc1F | 3.84
CCCCc1ccc(NC(=O)NC(=O)c2c(F)cccc2F)c(Br)c1 | 3.39
